For each of the binders below, state its pKd.
- Tested on: T1, AMHR-II/Fc fusion protein (human, UniProt Q16671 18-149, limits assumed)
- T1 construct: also called AMHR-II recombinant receptor expressed in the form of fusion protein with a region Fc; recombinant target; not shown: Fc region
- T1 sequence (Q16671 18-149 limits assumed): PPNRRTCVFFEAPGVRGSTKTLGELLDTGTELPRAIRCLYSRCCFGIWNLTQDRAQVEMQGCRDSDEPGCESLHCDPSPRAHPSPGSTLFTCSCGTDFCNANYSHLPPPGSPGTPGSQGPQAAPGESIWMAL
- Experiment description: SPR, BIAcore X100; AMHR-II/Fc immobilised on CM5 chip, antibody injected; 25 C
To interpret pKd, take it as minus log10 of a concentration measured in moles per litre.

Lab book: pKd of mutated humanized 12G4 antibody 3C-23 produced in CHO (antibody, human IgG1, kappa, V domains shown, also called 3C_23 CHO) VH: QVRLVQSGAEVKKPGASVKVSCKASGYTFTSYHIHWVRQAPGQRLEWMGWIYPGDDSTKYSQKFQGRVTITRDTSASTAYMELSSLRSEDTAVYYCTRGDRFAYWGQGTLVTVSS VL: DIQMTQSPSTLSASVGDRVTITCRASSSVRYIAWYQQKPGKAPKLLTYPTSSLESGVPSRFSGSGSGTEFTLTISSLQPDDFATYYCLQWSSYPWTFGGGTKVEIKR noted as 7.07

Lab book: pKd of mutated humanized 12G4 antibody 6B-78 produced in YB2/0 (antibody, human IgG1, kappa, V domains shown, Chains without leader; Mutation VL-E184K; also called 6B_78 YB2/0; R901 6B78) VH: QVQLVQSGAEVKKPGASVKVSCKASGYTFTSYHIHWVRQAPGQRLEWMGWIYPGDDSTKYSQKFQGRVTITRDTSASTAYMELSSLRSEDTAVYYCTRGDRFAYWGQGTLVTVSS VL: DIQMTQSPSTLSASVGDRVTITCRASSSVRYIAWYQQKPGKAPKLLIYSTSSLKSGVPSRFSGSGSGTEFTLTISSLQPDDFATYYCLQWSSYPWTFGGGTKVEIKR noted as 7.09

Lab book: pKd of mutated humanized 12G4 antibody 3C-23K produced in YB2/0 (antibody, human IgG1, kappa, V domains shown, Chains without leader; also called 3C_23K YB2/0; 3C-23K-YB2/0) VH: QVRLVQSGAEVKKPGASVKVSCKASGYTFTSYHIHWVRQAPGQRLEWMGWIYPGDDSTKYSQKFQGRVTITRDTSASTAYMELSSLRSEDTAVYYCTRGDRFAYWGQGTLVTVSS VL: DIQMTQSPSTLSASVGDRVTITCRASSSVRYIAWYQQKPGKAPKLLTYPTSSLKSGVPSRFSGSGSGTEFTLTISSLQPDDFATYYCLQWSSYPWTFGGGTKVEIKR noted as 7.68

Lab book: pKd of mutated humanized 12G4 antibody 6B-78 produced in CHO (antibody, human IgG1, kappa, V domains shown, also called 6B_78 CHO) VH: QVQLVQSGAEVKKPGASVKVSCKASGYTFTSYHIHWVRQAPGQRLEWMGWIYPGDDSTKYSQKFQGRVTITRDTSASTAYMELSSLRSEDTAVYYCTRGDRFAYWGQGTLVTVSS VL: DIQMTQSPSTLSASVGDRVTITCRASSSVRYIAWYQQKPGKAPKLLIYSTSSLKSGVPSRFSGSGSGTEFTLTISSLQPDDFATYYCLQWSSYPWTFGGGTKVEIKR noted as 7.09
